EXPERIMENTAL_PROTOCOL: Log D (pH7.4 shake flask)
Assay type: physicochemical
EXPERIMENTAL_PARAMETERS: pH 7.4; 1-octanol/phosphate buffer shake flask; read-out: mLogD (pH 7.4)
VALUE_KIND: logD

COMPOUND	ENDPOINT_RESULT
Cc1cc(C(C)(C)CO)c(O)cc1CC(=O)Nc1ccnc(C(=O)NC2(C(F)(F)F)CC2)c1 [Example 14.1]	3.4
CC(C)(C#N)NC(=O)c1cc(NC(=O)Cc2cc(O)c(C(C)(O)C(F)(F)F)cc2F)ccn1 (stereo not shown) [Example 2.7]	3

---

EXPERIMENTAL_PROTOCOL: Kinetic solubility determination (high throughput)
Type: physicochemical
EXPERIMENTAL_PARAMETERS: kinetic from dmso stock, sterile water, 5% DMSO, room temperature
VALUE_KIND: solubility kinetic at 90 min (µg/mL)

MOLECULE	UNIT_ANNOTATION	solubility kinetic at 90 min
O=C(Cc1cc(O)c(C2(CO)CCC2)cc1F)Nc1ccnc(C(=O)NC2(C(F)(F)F)CC2)c1	µg/mL	67
CC(C)(C)c1cc(Cl)c(CC(=O)Nc2ccnc(C(=O)NC3(C#N)CC3)c2)cc1O	µg/mL	11
CC(C)(C#N)NC(=O)c1cc(NC(=O)Cc2ccc(C(C)(C)C)c(O)c2)ccn1 [93.4 of PCT/GB2019/050209, reference compound]	µg/mL	37
C#CC1(NC(=O)c2cc(NC(=O)Cc3cc(O)c(C(C)(C)C)cc3F)ccn2)CCCC1	µg/mL	3
CC(C)(C)NC(=O)c1cc(NC(=O)Cc2cc(O)c(C(C)(C)C#N)cc2F)ccn1	µg/mL	42
CC(C)(O)c1cc(F)c(CC(=O)Nc2ccnc(C(=O)NC3(C(F)(F)F)CC3)c2)cc1O	µg/mL	152
CC(C)c1cc(C(C)(C)C)c(O)cc1CC(=O)Nc1ccnc(C(=O)NC(C)(C)C)c1	µg/mL	12
CC(C)(CO)c1cc(F)c(CC(=O)Nc2ccnc(C(=O)NC3(C(F)(F)F)CC3)c2)c(F)c1O	µg/mL	75
CC1(NC(=O)c2cc(NC(=O)Cc3cc(O)c(C(C)(C)CO)cc3Cl)ccn2)CC(F)(F)C1	µg/mL	44
C=C(C)c1cc(F)c(CC(=O)Nc2ccnc(C(=O)NC3(C(F)(F)F)CC3)c2)cc1O	µg/mL	18

(a) [2H]c1c(O)c(C(C([2H])([2H])[2H])(C([2H])([2H])[2H])C([2H])([2H])[2H])cc(F)c1CC(=O)Nc1ccnc(C(=O)NC2(C#N)CC2)c1
(b) C#CC(C)(C)NC(=O)c1cc(NC(=O)Cc2cc(O)c(C(C)(C)C)cc2F)ccn1
(c) CC(C)(C)c1cc(F)c(CC(=O)Nc2ccnc(C(=O)NC3(C#N)CC3)c2)cc1O
(d) CC(C)(CO)c1cc(F)c(CC(=O)Nc2ccnc(C(=O)N[C@H]3CCC[C@@H]3O)c2)cc1O
(e) CC(C)(C#N)NC(=O)c1cc(NC(=O)Cc2cc(O)c(C(C)(O)C(F)(F)F)cc2F)ccn1 (stereo not shown)
Req: List items by solubility kinetic at 90 min in falling order. Labels, requested order.
Resp: d, e, a, c, b
(d: 296 µg/mL, e: 164 µg/mL, a: 29 µg/mL, c: 11 µg/mL, b: 6 µg/mL)

---

ASSAYED_TARGET: human TMEM16A (TMEM16Aabc variant) (Homo sapiens, UniProt Q5XXA6, DEL476-501)
EXPERIMENTAL_PROTOCOL: Automated whole-cell patch clamp (Qpatch) TMEM16A potentiator assay in recombinant FRT cells
Assay type: cell-based
EXPERIMENTAL_PARAMETERS: 3.33 uM, percentage increase of baseline TMEM16A current, minimum n = 2, read-out: % Potentiation @ 3.33 uM Avg
VALUE_KIND: activation at 3.33 µM (%)

Examples from the recorded data:
O=C(Cc1cc(O)c(C2(CO)CCC2)cc1F)Nc1ccnc(C(=O)NC2(C(F)(F)F)CC2)c1 339
CC(C)(C)NC(=O)c1cc(NC(=O)Cc2cc(O)c(C3(C)CC3)cc2F)ccn1 240
CC(C)(C)NC(=O)c1cc(NC(=O)Cc2cc(O)c(C(C)(C)C#N)cc2F)ccn1 356
CC(C)(CO)c1cc(F)c(CC(=O)Nc2ccnc(C(=O)NC3(C(F)F)CC3)c2)cc1O 226
CC(C)(CO)c1cc(F)c(CC(=O)Nc2ccnc(C(=O)NC3(C(F)(F)F)COC3)c2)cc1O 406

(P) CC(C)(C#N)NC(=O)c1cc(NC(=O)Cc2cc(O)c(C(C)(C)C)cc2F)c(F)cn1
(Q) CC1(NC(=O)c2cc(NC(=O)Cc3cc(O)c(C(C)(C)CO)cc3Cl)ccn2)CC(F)(F)C1
(R) CC(C)c1cc(C(C)(C)C)c(O)cc1CC(=O)Nc1ccnc(C(=O)NC(C)(C)C)c1
Req: Returns the items ordered by activation at 3.33 µM, from maximum to minimum. Output spec: labels arranged per the requested ranking.
Resp: R, P, Q
(R: 513%, P: 353%, Q: 195%)

---

EXPERIMENTAL_PROTOCOL: Caco-2 permeability assay
Format: in vitro ADME
EXPERIMENTAL_PARAMETERS: human, Caco-2, pH 7.4; B-A/A-B
VALUE_KIND: efflux ratio at 2 h, 10 μM

Answered cases to consult:
MOLECULE	ENDPOINT_RESULT
CC(C#N)NC(=O)c1cc(NC(=O)Cc2cc(O)c(C(C)(C)C)cc2F)ccn1 (stereo not shown)	0.9
CC(C)(CO)c1cc(Cl)c(CC(=O)Nc2ccnc(C(=O)NC3(C(F)(F)F)CC3)c2)cc1O	2.8

(a) Cc1cc(C(C)(C)CO)c(O)cc1CC(=O)Nc1ccnc(C(=O)NC2(C(F)(F)F)CC2)c1
(b) O=C(Cc1cc(O)c(C(CO)C(F)(F)F)cc1F)Nc1ccnc(C(=O)NC2(C(F)(F)F)CC2)c1 (stereo not shown)
Req: Quick one: lower efflux ratio at 2 h, 10 μM, a or b ? Pick one; state its label.
Resp: a
(a: 2.8, b: 20.7)

---

EXPERIMENTAL_PROTOCOL: Caco-2 permeability assay
Format: in vitro ADME
EXPERIMENTAL_PARAMETERS: human, Caco-2, pH 7.4; basolateral to apical; 10 μM; 2 hours; pH7.4
VALUE_KIND: Papp B→A at 2 h, 10 μM (nm/s)

COMPOUND	UNIT_ANNOTATION	Papp B→A at 2 h, 10 μM
CC(C)(O)c1cc(F)c(CC(=O)Nc2ccnc(C(=O)NC3(C(F)(F)F)CC3)c2)cc1O	nm/s	57
O=C(Cc1cc(O)c(C2(CO)CCC2)cc1F)Nc1ccnc(C(=O)NC2(C(F)(F)F)CC2)c1	nm/s	61
CC(C)(CCO)c1cc(F)c(CC(=O)Nc2ccnc(C(=O)NC3(C(F)(F)F)CC3)c2)cc1O	nm/s	55

(a) CC(C)(CO)c1cc(F)c(CC(=O)Nc2ccnc(C(=O)NC3(C(F)(F)F)CC3)c2)cc1O
(b) O=C(Cc1cc(O)c(C(CO)C(F)(F)F)cc1F)Nc1ccnc(C(=O)NC2(C(F)(F)F)CC2)c1 (stereo not drawn)
(c) CC(C#N)NC(=O)c1cc(NC(=O)Cc2cc(O)c(C(C)(C)C)cc2F)ccn1 (stereo not drawn)
Req: Number of compounds to sort: 3. Sort criterion: Papp B→A at 2 h, 10 μM, ascending. Rank the items, then write their labels in that order.
Resp: c, a, b
(c: 25 nm/s, a: 53 nm/s, b: 78 nm/s)

---

ASSAYED_TARGET: human TMEM16A (TMEM16Aabc variant) (Homo sapiens, UniProt Q5XXA6, DEL476-501)
Sequence (Q5XXA6 with tags, fused parts or gaps isoform Q5XXA6-5 DEL539-564): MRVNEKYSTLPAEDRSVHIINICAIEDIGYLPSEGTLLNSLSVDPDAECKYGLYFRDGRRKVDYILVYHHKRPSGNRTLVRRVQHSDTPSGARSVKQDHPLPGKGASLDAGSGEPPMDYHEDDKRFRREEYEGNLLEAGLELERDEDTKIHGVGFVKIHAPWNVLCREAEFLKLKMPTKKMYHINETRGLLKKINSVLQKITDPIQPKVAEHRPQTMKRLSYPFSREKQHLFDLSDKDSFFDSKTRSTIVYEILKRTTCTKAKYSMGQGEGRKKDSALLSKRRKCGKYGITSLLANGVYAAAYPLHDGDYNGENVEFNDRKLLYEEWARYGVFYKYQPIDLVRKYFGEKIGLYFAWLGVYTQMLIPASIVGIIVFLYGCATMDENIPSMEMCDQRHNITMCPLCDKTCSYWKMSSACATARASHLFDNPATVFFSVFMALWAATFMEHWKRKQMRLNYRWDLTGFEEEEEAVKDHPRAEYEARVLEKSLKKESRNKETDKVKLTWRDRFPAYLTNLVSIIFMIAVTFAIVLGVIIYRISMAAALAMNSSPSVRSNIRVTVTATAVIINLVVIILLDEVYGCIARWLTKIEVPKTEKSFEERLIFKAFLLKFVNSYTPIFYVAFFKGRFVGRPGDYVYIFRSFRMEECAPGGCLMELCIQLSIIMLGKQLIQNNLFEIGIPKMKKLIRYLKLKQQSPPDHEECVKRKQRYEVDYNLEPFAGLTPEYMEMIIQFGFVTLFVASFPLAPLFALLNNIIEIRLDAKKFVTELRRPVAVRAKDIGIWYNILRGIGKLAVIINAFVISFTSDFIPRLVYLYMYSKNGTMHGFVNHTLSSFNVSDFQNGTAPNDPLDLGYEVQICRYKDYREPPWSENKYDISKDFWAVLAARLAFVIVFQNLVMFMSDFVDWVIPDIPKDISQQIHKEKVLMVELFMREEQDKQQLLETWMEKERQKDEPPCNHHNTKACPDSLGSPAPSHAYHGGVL
EXPERIMENTAL_PROTOCOL: Automated whole-cell patch clamp (Qpatch) TMEM16A potentiator assay in recombinant FRT cells
EXPERIMENTAL_PARAMETERS: minimum n = 2
VALUE_KIND: EC50 (nM)

COMPOUND	UNIT_ANNOTATION	ENDPOINT_RESULT
CC(C)(C#N)NC(=O)c1cc(NC(=O)Cc2cc(O)c(C(C)(C)CO)cc2F)ccn1	nM	115
N#CC1(NC(=O)c2cc(NC(=O)Cc3cc(O)c(C4(C(F)(F)F)CC4)cc3F)ccn2)CC1	nM	88
CC(C)(CO)c1cc(F)c(CC(=O)Nc2ccnc(C(=O)NC3(C(F)(F)F)CC3)c2)c(F)c1O	nM	18
CC(C)(CO)c1cc(F)c(CC(=O)Nc2ccnc(C(=O)NC3(CO)CCC3)c2)cc1O	nM	214
CC(C)(C#N)NC(=O)c1cc(NC(=O)Cc2cc(O)c(C(C)(O)C(F)(F)F)cc2F)ccn1 (stereo not shown)	nM	219

(a) CC(C)(C#N)c1cc(F)c(CC(=O)Nc2ccnc(C(=O)NC3(C(F)(F)F)CC3)c2)cc1O
(b) O=C(Cc1cc(O)c(C2(CO)CC2)cc1F)Nc1ccnc(C(=O)NC2(C(F)(F)F)CC2)c1
Req: Please choose the item with the lower EC50 value from this pair: a and b # answer = label of selected item
Resp: a
